Readout: melting point (°C)

The examples below pair each entry with its known result.
Cc1ccc(-n2c(C)nc3cc([N+](=O)[O-])ccc32)cc1	152
O=C(Nc1ccc([N+](=O)[O-])cc1Cl)c1cc(Cl)ccc1O	230
O=C(OOC(=O)c1ccccc1)c1ccccc1	105
CC(=O)Nc1ccccc1Br	99
OCCNC1CCCCC1	36
O=[N+]([O-])c1ccc(C=Cc2cccc(CO)n2)o1	170
COc1ncc(F)c2nc(S(=O)(=O)Nc3c(F)cccc3F)nn12	194
CC1(C)C(C=C(Br)Br)C1C(=O)OC(C#N)c1cccc(Oc2ccccc2)c1 (configuration not stated)	100

P = O=C(OCCc1ccc(CCOC(=O)c2ccc([N+](=O)[O-])cc2)cc1)c1ccc([N+](=O)[O-])cc1
Q = CCC(C(=O)OC)c1ccccc1 (configuration not stated)
Hi there, can you help? I need to know whether P or Q has lower measured melting point. To answer, give the label that identifies your chosen option.
Q
(Q: 77.5 °C, P: 173 °C)
